Test system: ACHN renal
Assay: NCI-60 one-dose screen, 48 h (100 = growth as untreated, 0 = no growth, -100 = all killed)
Conditions: 10 µM unless noted
This is part of a sample that, as a whole, favours compounds with a hit. Of some 83,000 tested, about 20% had one in any assay.
Labelling field: enter Criterion met if recorded growth is less than 90%. Enter Criterion not met if it equals or exceeds that cut-off.

Example entries and their recorded answers appear below.
growth under 90%? Item: Cn1cc(-c2cc(N)n3nc(-c4c[nH]c5ccccc45)cc3n2)c2cc(Br)cnc21
Criterion met

growth under 90%? Item: COc1ccc2[nH]cc(-c3nnc(N)nc3-c3cn(C)c4ncc(Br)cc34)c2c1
Criterion met

growth under 90%? Item: COc1ccc(C(=O)/C=C/c2ccc(OC)c(OCc3ccccc3)c2)cc1OC
Criterion met

growth under 90%? Item: CC1[C@H]2[C@H](C[C@H]3[C@@H]4CC=C5c6sc(Nc7ccccc7F)nc6CC[C@]5(C)[C@H]4CC[C@@]32C)O[C@]12CC[C@@H](C)CO2 (stereo partly drawn)
Criterion met

growth under 90%? Item: O=C(c1ccccc1)c1ccc2nc(-c3cccc(Cl)c3)[nH]c2c1
Criterion not met

growth under 90%? Item: C/C(=N\N=C1/C(=O)Nc2ccc(Cl)cc21)c1ccc2c(c1)Nc1ccccc1S2
Criterion met

growth under 90%? Item: O=c1[nH]c2ccccc2cc1CSc1cccc(Nc2nccc(-c3ccc4ccccc4c3)n2)c1
Criterion not met

growth under 90%? Item: COc1ccc(C(=O)/C=C/c2ccccc2Br)cc1S(N)(=O)=O
Criterion met

Lab note: next compound to report on.
growth under 90%? Item: CCCS(=O)(=O)N1CCCC(C(=O)Nc2nc3ccc(NC(=O)c4ccc(F)c(OC)c4F)cc3s2)C1 (stereo not drawn)
Criterion met

###

Tested on: TK-10 renal
Experiment: NCI-60 one-dose screen, 48 h (100 = growth as untreated, 0 = no growth, -100 = all killed)
Conditions: 10 µM unless noted
The panel holds about 83,000 compounds, 20% with a hit somewhere; the sample as a whole holds those more often.
outcome measure: growth (%)
The response must be a number in % with no trailing unit.

Would you mind telling me what growth value was observed for CC(C)c1ccc2c(N)c(C(=O)Nc3ccc(C(F)(F)F)cn3)sc2n1 ?
76.5

Would you mind telling me what growth value was observed for Cc1cnc(C(=O)NNc2nc3cc(F)ccc3n3c(C(=O)N4CC5CC(C4)N5)ccc23)cn1 ?
41.2

Would you mind telling me what growth value was observed for COc1ccc(/C=C/c2nc3ccccc3c(=O)n2CC(=O)Nc2ccc(OC)cc2)cc1 ?
48.2

Would you mind telling me what growth value was observed for CC(=O)c1cc(C(=O)c2ccccc2)n2c1ccc1ccccc12 ?
142

Would you mind telling me what growth value was observed for COc1cc(/C=C/C(=O)c2ccc(C)cc2)ccc1Oc1nc(Nc2ccc(F)cc2)nc(N(C)C)n1 ?
77.3

###

Tested on: A498 renal
Assay: NCI-60 one-dose screen, 48 h (100 = growth as untreated, 0 = no growth, -100 = all killed)
Conditions: 10 µM unless noted
The panel holds about 83,000 compounds, 20% with a hit somewhere; the sample as a whole holds those more often.
Labelling field: enter y if recorded growth is less than 90%. Enter n if it equals or exceeds that cut-off.

Example entries and their recorded answers appear below.
growth under 90%? Item: C/C(=N\N=C1/C(=O)Nc2ccccc21)c1ccc2c(c1)Nc1ccccc1S2
y

growth under 90%? Item: NS(=O)(=O)c1ccc(-n2cc(-c3cccc(NC(=O)c4cc(C(F)(F)F)cc(C(F)(F)F)c4)c3)nn2)cc1
n

growth under 90%? Item: C[C@H]1CN(C(=O)c2ccc3c(NNC(=O)c4ccncn4)nc4cc(F)c(F)cc4n23)CCN1
y

Lab note: next compound to report on.
growth under 90%? Item: CN(C)CCOc1ccc(C(=O)C2[C@H](c3ccc(Cl)cc3)[C@@H](c3ccccc3)NC23C(=O)Nc2ccc(Br)cc23)cc1 (stereo not given in full)
n

Where do these numbers come from? They come from PubChem BioAssay (NCI).
